experiment: Water solubility confirmation (organic material content quantified by Karl Fisher method); type: physicochemical
Property: Water solubility (%)
Answer in %, number only, no unit symbol.

- Structure smiles string: "O=c1cc(-c2ccc(O)c(O)c2)oc2cc(O)cc(O)c12"
  Units: "%"
  Val: 0.02
- Structure smiles string: "COc1ccc([C@@H]2CC(=O)c3c(O)cc(O[C@@H]4O[C@H](CO[C@@H]5O[C@@H](C)[C@H](O)[C@@H](O)[C@H]5O)[C@@H](O)[C@H](O)[C@H]4O)cc3O2)cc1O"
  Units: "%"
  Val: 0.00
- Structure smiles string: "O=c1cc(-c2ccccc2)oc2cc(O)c(O)c(O)c12"
  Units: "%"
  Val: 0.00
- Structure smiles string: "O=c1c(O)c(-c2ccc(O)cc2)oc2cc(O)cc(O)c12"
  Units: "%"
  Val: 0.01
- Structure smiles string: "O=c1c(O)c(-c2ccc(O)c(O)c2)oc2cc(O)cc(O)c12"
  Units: "%"
  Val: 0.00
- Structure smiles string: "O=C1C[C@@H](c2ccc(O)cc2)Oc2cc(O)cc(O)c21"
  Units: "%"
  Val: 0.04
- Structure smiles string: "COc1cc(/C=C/C(=O)CC(=O)/C=C/c2ccc(O)c(OC)c2)ccc1O"
  Units: "%"
  Val: 0.00

Prompt: Quickly give me recorded Water solubility for "Oc1ccc(/C=C/c2cc(O)cc(O)c2)cc1"
Completion: 0.00
